IC50 values, listed per item
target: Diacylglycerol lipase-alpha (Homo sapiens, UniProt Q9Y4D2); assay: Inhibition of full-length human DAGLalpha expressed in HEK293T cell membranes using para-nitrophenylbutyrate by colorimetric assay
Sequence (Q9Y4D2 whole entry): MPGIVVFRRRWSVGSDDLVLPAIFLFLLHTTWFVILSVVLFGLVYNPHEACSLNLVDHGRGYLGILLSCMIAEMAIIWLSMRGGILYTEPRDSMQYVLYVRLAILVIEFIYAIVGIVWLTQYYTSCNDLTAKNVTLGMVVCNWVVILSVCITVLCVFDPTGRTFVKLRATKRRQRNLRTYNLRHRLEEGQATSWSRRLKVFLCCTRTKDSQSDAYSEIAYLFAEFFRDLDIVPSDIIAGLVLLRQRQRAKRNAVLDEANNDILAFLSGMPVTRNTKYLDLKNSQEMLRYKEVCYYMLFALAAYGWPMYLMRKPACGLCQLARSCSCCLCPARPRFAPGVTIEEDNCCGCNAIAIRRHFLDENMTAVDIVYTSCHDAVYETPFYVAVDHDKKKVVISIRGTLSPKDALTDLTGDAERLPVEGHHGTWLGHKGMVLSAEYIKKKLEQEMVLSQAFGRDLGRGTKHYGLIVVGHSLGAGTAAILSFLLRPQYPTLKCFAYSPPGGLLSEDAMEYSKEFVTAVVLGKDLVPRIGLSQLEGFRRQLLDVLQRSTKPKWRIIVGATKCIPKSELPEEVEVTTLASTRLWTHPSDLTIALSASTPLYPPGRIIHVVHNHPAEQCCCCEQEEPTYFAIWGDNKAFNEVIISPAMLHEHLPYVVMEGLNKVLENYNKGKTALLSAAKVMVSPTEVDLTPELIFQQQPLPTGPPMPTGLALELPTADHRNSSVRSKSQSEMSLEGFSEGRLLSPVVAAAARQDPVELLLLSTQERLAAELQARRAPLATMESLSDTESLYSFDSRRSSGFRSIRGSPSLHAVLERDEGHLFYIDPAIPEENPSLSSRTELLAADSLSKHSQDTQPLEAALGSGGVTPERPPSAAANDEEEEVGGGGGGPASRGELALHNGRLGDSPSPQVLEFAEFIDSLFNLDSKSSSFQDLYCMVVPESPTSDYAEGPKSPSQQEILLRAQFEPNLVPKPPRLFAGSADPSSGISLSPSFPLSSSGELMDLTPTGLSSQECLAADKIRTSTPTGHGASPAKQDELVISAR
PARAMETER: IC50

| STRUCTURE_AS_SMILES | RESULT |
| --- | --- |
| O=C(CCCc1ccccc1)c1nc2ncccc2o1 | 2.24 µM |
| CCCCCC(=O)c1nc2ncccc2o1 | > 10 µM |
| O=C(CCCCCCc1ccccc1)c1ncc(-c2cccc(F)c2)o1 | > 10 µM |
| CC(=O)c1nc2ncccc2o1 | > 10 µM |
| O=C(CCCCCCc1ccccc1)c1ncc(C(=O)C(F)(F)F)o1 | 1.82 µM |
| O=C(CCCCCCc1ccccc1)c1nnc(-c2ccco2)s1 | > 10 µM |
| O=C(CCCCCCc1ccccc1)c1nc(-c2cccc(Br)n2)no1 | 2.04 µM |
| O=C(CCCCCCc1ccccc1)c1ncc(-c2ccc(C(F)(F)F)cn2)o1 | > 10 µM |
| O=C(CCc1ccccc1)c1nc2ncccc2o1 | 18.2 µM |
| O=C(CCCCCCc1ccccc1)c1ncc(-c2ccccn2)s1 | > 10 µM |
| O=C(CCCCCCc1ccccc1)c1nnc(-c2ccco2)o1 | > 10 µM |
| O=C(CCCCCCc1ccccc1)c1nc(-c2cccc(I)n2)no1 | > 10 µM |
| O=C(CCCCCc1ccccc1)c1nc2ccccc2s1 | > 10 µM |
| O=C(CCCCCCc1ccccc1)c1ncc(-c2ccco2)s1 | > 10 µM |
| O=C(CCCCCCc1ccccc1)c1ncc(C(F)(F)F)o1 | > 10 µM |
| O=C(CCCCCCc1ccccc1)c1nnn[nH]1 | > 10 µM |
| COC(=O)c1cnc(C(=O)CCCCCCc2ccccc2)o1 | > 10 µM |
| COC(=O)c1nc(C(=O)CCCCCCc2ccccc2)no1 | > 10 µM |
| O=C(CCCCCCc1ccccc1)c1nnn(-c2ccco2)n1 | > 10 µM |
| Cc1coc(C(=O)CCCCCCc2ccccc2)n1 | > 10 µM |
| O=C(CCCCCCc1ccccc1)c1cccnn1 | > 10 µM |
| O=C(CCCCCCc1ccccc1)c1nc(-c2ccco2)no1 | 0.933 µM |

====

List of pIC50 values.
molecular target: Diacylglycerol lipase-alpha (Homo sapiens); assay: Inhibition of full-length human DAGLalpha expressed in HEK293T cell membranes using para-nitrophenylbutyrate by colorimetric assay
pIC50: −log10 of the molar value.
PARAMETER: pIC50

| STRUCTURE_AS_SMILES | RESULT |
| --- | --- |
| N#Cc1cccc(-c2noc(C(=O)CCCCCCc3ccccc3)n2)n1 | 5.98 |
| COc1cnc(C(=O)CCCCCCc2ccccc2)o1 | < 5.00 |
| O=C(CCCCCCc1ccccc1)c1noc(-c2ccco2)n1 | < 5.00 |

====

target: Diacylglycerol lipase-alpha (Homo sapiens, UniProt Q9Y4D2); assay: Inhibition of full-length human DAGLalpha expressed in HEK293T cell membranes using para-nitrophenylbutyrate by colorimetric assay
pIC50: −log10 of the molar value.

| STRUCTURE_AS_SMILES | pIC50 |
| --- | --- |
| Cc1ccc(-c2cnc(C(=O)CCCCCCc3ccccc3)o2)nc1 | < 5.00 |
| O=C(CCCCCCc1ccccc1)c1nc(-c2cccc(Cl)n2)no1 | < 5.00 |
| Cc1cnc(C(=O)CCCCCCc2ccccc2)o1 | < 5.00 |
| O=C(CCCCCc1ccccc1)c1nc2ncccc2[nH]1 | 5.91 |
